The reader will find pIC50 measurements below, all made with Acetylcholinesterase (Electrophorus electricus).
Sequence (O42275 whole entry): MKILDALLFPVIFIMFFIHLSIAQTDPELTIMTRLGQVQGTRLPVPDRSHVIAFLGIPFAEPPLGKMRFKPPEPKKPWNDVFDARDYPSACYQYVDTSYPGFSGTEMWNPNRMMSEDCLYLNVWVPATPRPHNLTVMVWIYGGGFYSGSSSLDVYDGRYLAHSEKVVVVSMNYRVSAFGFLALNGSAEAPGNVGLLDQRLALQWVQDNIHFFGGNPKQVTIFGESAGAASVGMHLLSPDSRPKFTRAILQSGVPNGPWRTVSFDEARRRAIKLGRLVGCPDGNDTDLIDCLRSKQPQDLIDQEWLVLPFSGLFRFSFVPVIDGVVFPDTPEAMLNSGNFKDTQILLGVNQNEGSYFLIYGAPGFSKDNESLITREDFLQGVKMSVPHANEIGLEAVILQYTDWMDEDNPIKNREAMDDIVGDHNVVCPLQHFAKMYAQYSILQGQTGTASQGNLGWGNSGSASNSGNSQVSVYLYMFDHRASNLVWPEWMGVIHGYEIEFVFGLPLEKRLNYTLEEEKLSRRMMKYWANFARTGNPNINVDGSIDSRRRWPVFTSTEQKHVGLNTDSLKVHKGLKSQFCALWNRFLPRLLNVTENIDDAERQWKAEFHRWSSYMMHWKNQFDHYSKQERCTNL
pIC50: −log10 of the molar value.
Outcome Measure: pIC50

{"Compound": "COc1cccc(/C=C2\\CN(C)C/C(=C\\c3cccc(OC)c3Cl)C2=O)c1Cl", "Qual": "=", "Readout Number": 5.92}
{"Compound": "COc1ccc(/C=C2\\CN(C)C/C(=C\\c3ccc(OC)c(OC)c3Cl)C2=O)c(Cl)c1OC", "Qual": "=", "Readout Number": 6.20}
{"Compound": "COc1cccc(/C=C2\\CN(Cc3ccccc3)C/C(=C\\c3cccc(OC)c3Cl)C2=O)c1Cl", "Qual": "<", "Readout Number": 4.00}
{"Compound": "COc1ccc(/C=C2\\CNC/C(=C\\c3ccc(OC)c(OC)c3Cl)C2=O)c(Cl)c1OC", "Qual": "=", "Readout Number": 5.43}
{"Compound": "COc1cccc(/C=C2\\CC(C(C)C)C/C(=C\\c3cccc(OC)c3Cl)C2=O)c1Cl (stereo not given)", "Qual": "=", "Readout Number": 5.89}
